experiment: Cellular transport studies (Papp, efflux ratio); format: in vitro ADME; conditions: human, Caco-2; Papp(BL→AP)/Papp(AP→BL); read-out: ER value (efflux ratio)
PROPERTY NAME: efflux ratio at 200 μg/mL

INSERT INTO results (compound, property_name, result) VALUES
  ('CCCCCCOC(=O)NC(=N)c1ccc(NCc2nc3cc(C(=O)N(CCC(=O)OCC)c4ccccn4)ccc3n2C)cc1 [DE, dabigatran etexilate]', 'efflux ratio at 200 μg/mL', 14.2);
